TARGET SYSTEM: KRAS G12D (Homo sapiens, UniProt P01116, G12D)
Sequence (P01116 with tags, fused parts or gaps isoform P01116-2 G12D): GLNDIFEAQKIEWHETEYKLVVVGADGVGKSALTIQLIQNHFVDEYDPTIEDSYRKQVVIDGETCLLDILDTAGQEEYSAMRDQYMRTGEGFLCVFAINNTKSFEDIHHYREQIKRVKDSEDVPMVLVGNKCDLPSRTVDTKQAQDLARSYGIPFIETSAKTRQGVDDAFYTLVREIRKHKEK
ASSAY INFO: SOS-catalyzed nucleotide exchange assay, KRAS G12D (Procedure A)
Type: biochemical
RUN PARAMETERS: guanine nucleotide exchange (GNE)
pIC50: −log10 of the molar value.

>  <MOLECULE>
Cc1cc2[nH]nc(C#N)c2c(-c2nccc3c2sc2nc(OC[C@@]45CCCN4C[C@H](F)C5)nc(N4C[C@H]5CC[C@@H](C4)N5)c23)c1C(F)F

>  <pIC50>
6.91

$$$$
>  <MOLECULE>
COC1(COc2nc(N3C[C@H]4CC[C@@H](C3)N4)c3c(n2)sc2c(-c4c(C(F)(F)F)c(C)cc5[nH]ncc45)nccc23)CCOC1 (stereo partly drawn)

>  <pIC50>
5.58

$$$$
>  <MOLECULE>
C#Cc1c(F)ccc2cc3[nH]ncc3c(-c3nccc4c3sc3nc(OC[C@@]56CCCN5C[C@H](F)C6)nc(N5C[C@H]6CC[C@@H](C5)N6CCCC#N)c34)c12

>  <pIC50>
7.00

$$$$
>  <MOLECULE>
Cc1cc2[nH]ncc2c(-c2nccc3c2sc2nc(OC[C@@]45CCCN4C[C@H](F)C5)nc(N4C[C@H]5CC[C@@H](C4)N5CC(C)O)c23)c1C(F)(F)F (stereo partly drawn)

>  <pIC50>
6.31

$$$$
>  <MOLECULE>
Cc1cc2[nH]ncc2c(-c2nccc3c2sc2nc(OCC4CCCN(S(C)(=O)=O)C4)nc(N4C[C@H]5CC[C@@H](C4)N5)c23)c1C(F)(F)F (stereo partly drawn)

>  <pIC50>
5.62

$$$$
>  <MOLECULE>
Cc1cc2[nH]ncc2c(-c2nccc3c2sc2nc(OCC4CCS(=O)(=O)CC4)nc(N4C[C@H]5CC[C@@H](C4)N5)c23)c1C(F)(F)F

>  <pIC50>
5.39

$$$$

Cited source: patent US20260347372A1
